- system under test: T1, IIB-Fc:ALK3-Fc heterodimer (human ActRIIB ECD-Fc paired with human ALK3 ECD-Fc) (human, UniProt Q13705-1 19-134; P36894 24-152)
- T1 construct: activin receptor type IIB (ActRIIB) extracellular domain, human, aa 19-134 of NP_001097.2; copies: 1 + 1
- T1 sequence (Q13705 19-134, chain 1 of 2): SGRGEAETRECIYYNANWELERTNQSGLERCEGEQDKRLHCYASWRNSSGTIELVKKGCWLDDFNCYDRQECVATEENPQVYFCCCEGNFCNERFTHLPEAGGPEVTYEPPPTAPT
- T1 sequence (P36894 24-152, chain 2 of 2): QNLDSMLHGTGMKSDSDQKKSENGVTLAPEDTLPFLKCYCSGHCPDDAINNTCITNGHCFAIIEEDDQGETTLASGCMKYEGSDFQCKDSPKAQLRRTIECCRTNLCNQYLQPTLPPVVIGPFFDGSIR
- experiment description: SPR; Biacore 8K, 37 °C; Fc-fusion receptor dimers captured by anti-human Fc antibody on a CM5 chip (100-150 RU); ligands injected in two-fold dilution series (300 s association, 600 s dissociation); HBS-EP+ supplemented with 350 mM NaCl and 0.5 mg/mL BSA; 1:1 Langmuir model with a term for mass transport
- condition context: both partners purified
The reader will find reported kon values listed item by item below.

binder	kon / M⁻¹ s⁻¹
activin B (ligand, human, UniProt P09529 293-407, looked up, source: generated in house) GLECDGRTNLCCRQQFFIDFRLIGWNDWIIAPTGYYGNYCEGSCPAYLAGVPGSASSFHTAVVNQYRMRGLNPGTVNSCCIPTKLSTMSMLYFDDEYNIVKRDVPNMIVEECGCA	4.8e+06
GDF11 (ligand, human, UniProt O95390 299-407, looked up, source: generated in house) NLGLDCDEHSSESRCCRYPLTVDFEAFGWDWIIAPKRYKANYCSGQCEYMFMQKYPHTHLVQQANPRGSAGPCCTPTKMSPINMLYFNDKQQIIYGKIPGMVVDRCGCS	1.32e+07
